- System: C8166
- experimental.protocol: Compound was tested for its ability to inhibit the replication of HIV-1 in C8166 T-cells
- Type: functional
- reported.conditions: Homo sapiens, read-out: ED50 (the source's name)
quantity.measured: pEC50
Please report pEC50 as the negative decimal logarithm of the molar concentration, giving only the number.

- compound: "Cc1cn([C@H]2C[C@H](OC=O)[C@@H](COP(=O)(OCC(Cl)(Cl)Cl)OCC(Cl)(Cl)Cl)O2)c(=O)[nH]c1=O"
  quantity.measured: "pEC50"
  result.number: 4.00
- compound: "Cc1cn([C@H]2C[C@H](N=[N+]=[N-])[C@@H](CO)O2)c(=O)[nH]c1=O [ZIDOVUDINE]"
  quantity.measured: "pEC50"
  result.number: 8.00
- compound: "Cc1cn([C@H]2C[C@H](OC(=O)C(C)C)[C@@H](COP(=O)(OCC(Cl)(Cl)Cl)OCC(Cl)(Cl)Cl)O2)c(=O)[nH]c1=O"
  quantity.measured: "pEC50"
  result.number: 4.40
- compound: "CCC(=O)O[C@H]1C[C@H](n2cc(C)c(=O)[nH]c2=O)O[C@@H]1COP(=O)(OCC(Cl)(Cl)Cl)OCC(Cl)(Cl)Cl"
  quantity.measured: "pEC50"
  result.number: 4.46
- compound: "Cc1cn([C@H]2C[C@H](OC(=O)CCl)[C@@H](COP(=O)(OCC(Cl)(Cl)Cl)OCC(Cl)(Cl)Cl)O2)c(=O)[nH]c1=O"
  quantity.measured: "pEC50"
  result.number: 4.30

Please state recorded pEC50 (tested on C8166) of CC(=O)O[C@H]1C[C@H](n2cc(C)c(=O)[nH]c2=O)O[C@@H]1COP(=O)(OCC(Cl)(Cl)Cl)OCC(Cl)(Cl)Cl
4.52

Please state recorded pEC50 (tested on C8166) of CCCC(=O)O[C@H]1C[C@H](n2cc(C)c(=O)[nH]c2=O)O[C@@H]1COP(=O)(OCC(Cl)(Cl)Cl)OCC(Cl)(Cl)Cl
4.12

Please state recorded pEC50 (tested on C8166) of Cc1cn([C@H]2C[C@H](OC(=O)C(Cl)(Cl)Cl)[C@@H](COP(=O)(OCC(Cl)(Cl)Cl)OCC(Cl)(Cl)Cl)O2)c(=O)[nH]c1=O
4.30
